Values compiled from paper PMC5540273.

# Test system: PIK3CD
# assayConditions: concentration: 1 μM, replicates: in singlicate; n = 1;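 note: KINOMEscan kinase panel screen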
measuredQuantity: %Inh (%)
Write the value in % as a bare number.

# compound, measuredQuantity, testResult
measured = [
    ("Cl.c1ccc(Cn2cnc3cc(Nc4ncnc5ccccc45)ccc32)cc1", "%Inh", 0),
    ("CCC(=O)c1c(-c2ccccc2)c2cc(Cl)ccc2c(=O)n1Cc1cc(S(C)(=O)=O)n(CC(N)=O)n1", "%Inh", 0),
    ("Nc1n[nH]c2nnc(-c3ccccc3)c(-c3ccccc3)c12", "%Inh", 8),
    ("CCS(=O)(=O)c1ccc(OC)c(Nc2ncc(-c3ccc(F)cc3)o2)c1.Cl", "%Inh", 0),
    ("COc1ccc(-n2cnc3c(N)ncnc32)cc1", "%Inh", 0),
]

(Q) Provide one value: measured %Inh of Nc1ncnc2c1ncn2-c1cccc(F)c1
(A) 0

(Q) Provide one value: measured %Inh of CCn1c(-c2nonc2N)nc2ccccc21
(A) 0

(Q) Provide one value: measured %Inh of Nc1nccc2scc(-c3ccc4c(c3)CCN4C(=O)Cc3ccccc3)c12
(A) 4

(Q) Provide one value: measured %Inh of Cc1ccccc1COc1cc(-n2cnc3cc(Cl)ccc32)sc1C(N)=O
(A) 0

(Q) Provide one value: measured %Inh of COc1cc2ncn(-c3cc(OCc4ccncc4)c(C(N)=O)s3)c2cc1OC
(A) 0

---

# Test system: TRKA
# Construct: gene NTRK1
# assayConditions: concentration: 1 μM, replicates: in singlicate; n = 1
measuredQuantity: %Inh (%)
Write the value in % as a bare number.

Here's what some known entries look like.
# compound, testResult
data = [
    ("COc1ccc(-c2cc3c(C)nc(N)nc3n([C@H]3CC[C@H](O)CC3)c2=O)cn1", 0),
    ("Cc1nn2c(=O)cc(N3CCOCC3)nc2n1Cc1cccc(Cl)c1Cl", 0),
    ("O=C(NCc1cccs1)c1cc(C(=O)c2c(Cl)cccc2Cl)c[nH]1", 0),
    ("Cn1c(=O)c(F)c(Nc2ccc(I)cc2F)c2c(=O)n(OC[C@H](O)CO)cnc21", 0),
    ("Nc1ncnc2c1ncn2-c1cccc2ccccc12", 25),
]

(Q) Under TRKA, report %Inh for CCC(=O)c1c(-c2ccccc2)c2cc(Cl)ccc2c(=O)n1Cc1ccc(C(=O)O)cc1
(A) 0

(Q) Under TRKA, report %Inh for COc1cc2ncn(-c3cc(OCc4ccc(S(C)(=O)=O)cc4)c(C(N)=O)s3)c2cc1OC
(A) 50

(Q) Under TRKA, report %Inh for O=C(NCCNc1ccnc(Nc2ccc(F)cc2)n1)Nc1ccc2c(c1)OCO2
(A) 4

(Q) Under TRKA, report %Inh for COC(=O)c1c(-c2ccccc2)c2cc(C)ccc2c(=O)n1Cc1ccccc1
(A) 0

(Q) Under TRKA, report %Inh for CN(C)c1cc(-c2ccc3c(N)n[nH]c3c2)nc(N)n1
(A) 0

(Q) Under TRKA, report %Inh for COc1ccc(-n2cnc3c(N)ncnc32)cc1
(A) 61

(Q) Under TRKA, report %Inh for COc1ccc(CNC(=O)NC2CCN(c3ccnc(Nc4ccc(F)cc4)n3)C2)cc1 (stereo not shown)
(A) 54

(Q) Under TRKA, report %Inh for COC(=O)c1c(-c2ccccc2)c2cc(Br)ccc2c(=O)n1Cc1ccc(S(C)(=O)=O)cc1
(A) 0

(Q) Under TRKA, report %Inh for Cc1cccc(-c2cc(-c3c[nH]nc3-c3ccccn3)ccn2)c1
(A) 0

(Q) Under TRKA, report %Inh for Cl.c1ccc(Cn2cnc3cc(Nc4ncnc5ccccc45)ccc32)cc1
(A) 0

(Q) Under TRKA, report %Inh for CCC(=O)c1c(-c2ccccc2)c2cc(Cl)ccc2c(=O)n1Cc1cc(C(=O)NC2CC2)n(C)n1
(A) 0

(Q) Under TRKA, report %Inh for Nc1nc(-c2ccccc2F)c(-c2ccnc3ccccc23)s1
(A) 0

(Q) Under TRKA, report %Inh for CN1C(=O)C(Nc2cc(Cl)c(O)c(Cl)c2)=C(c2ccc(Cl)cc2)C1=O
(A) 52

(Q) Under TRKA, report %Inh for Cc1ccccc1COc1cc(-n2cnc3cc(Cl)ccc32)sc1C(N)=O
(A) 0

---

A collection of compounds and their measured %Inh
# Tested on: PRP4
# assayConditions: concentration: 1 μM, replicates: in singlicate; n = 1
Write the value in % as a bare number.

# smi, testResult
measured = [
    ("Cc1nnc(-c2ccc(C)c(-c3ccc(C(=O)O)cc3)c2)o1", 8),
    ("O=C(Nc1n[nH]c2nc(-c3ccccc3)c(Br)cc12)C1CC1", 3),
    ("Cc1c(Cn2c(C)nn3c(=O)cc(N4CCO[C@H](C)C4)nc23)cccc1C(F)(F)F", 26),
]

(Q) Provide one value: measured %Inh of C[C@@H]1CC[C@H](C(=O)NC2CCCCC2)CN1c1cc(-c2ccc3c(N)n[nH]c3c2)nc(N)n1
(A) 26

(Q) Provide one value: measured %Inh of O=C(NCCNc1ccnc(Nc2ccc(F)cc2)n1)Nc1ccc2c(c1)OCO2
(A) 47

---

A collection of molecules and their measured %Inh
# Tested on: RIOK1
# assayConditions: concentration: 1 μM, replicates: in singlicate; n = 1
Write the value in % as a bare number.

# smi, %Inh / %
rows = [
    ("Nc1nc(N)c2nc(-c3ccccc3)[nH]c2n1", 20),
    ("CN1C(=O)C(Nc2cc(Cl)c(O)c(Cl)c2)=C(c2ccc(Cl)cc2)C1=O", 0),
    ("COc1cc2ncn(-c3cc(OCc4ccncc4Br)c(C(N)=O)s3)c2cc1OC", 38),
]

# ---- query molecule ----
(Q) Provide one value: measured %Inh of Cc1nnc(-c2ccc(C)c(-c3ccc(C(=O)O)cc3)c2)o1
(A) 15

---

# System: ERBB4
# assayConditions: concentration: 1 μM, replicates: in singlicate; n = 1
measuredQuantity: %Inh

# compound, %Inh
records = [
    ("Nc1nc(N)c2nc(-c3ccccc3)[nH]c2n1", "0%"),
    ("O=C1NC(=O)C(c2ccccc2)=C1Nc1cccc(O)c1", "3%"),
    ("COc1cc(OC)cc(-c2cc3cnc(N)nc3nc2NC(=O)NC(C)(C)C)c1", "4%"),
    ("Cc1nnc(-c2ccc3ncn(-c4ccc(S(C)=O)cc4)c3c2)o1 (stereo not drawn)", "11%"),
    ("CN1C(=O)C(Nc2ccccc2)=C(c2ccccc2)C1=O", "18%"),
    ("CCn1c(-c2ccoc2)nc2cnccc21", "0%"),
    ("Nc1ncnc2c1ncn2-c1cccc2ccccc12", "41%"),
    ("COc1cccc(C2=C(Nc3cccc(C(=O)O)c3)C(=O)NC2=O)c1", "0%"),
    ("Nc1n[nH]c2ncc(-c3ccccc3)cc12", "0%"),
    ("Cc1ccc(-c2ccc3c(ccc4sc5c(c43)NC[C@@H](C)N=C5N(C)C)n2)cn1", "3%"),
]

(Q) Provide one value: measured %Inh of COc1cc(Nc2ccnc3ccc(C(F)(F)F)cc23)cc(OC)c1OC
(A) 23%

(Q) Provide one value: measured %Inh of COc1cc(Nc2nccc(N3CCC(NC(=O)C(C)c4ccc(Cl)cc4)C3)n2)cc(OC)c1OC (stereo not drawn)
(A) 26%

(Q) Provide one value: measured %Inh of COc1cccc(-n2cnc3c(N)ncnc32)c1
(A) 1%

(Q) Provide one value: measured %Inh of Nc1ncnc2c1ncn2-c1cccc(F)c1
(A) 0%

(Q) Provide one value: measured %Inh of O=C(Nc1n[nH]c2nc(-c3ccccc3)c(Cl)cc12)C1CC1
(A) 0%

---

# System: ACVR1B
# assayConditions: concentration: 1 μM, replicates: in singlicate; n = 1
measuredQuantity: %Inh (%)
Write the value in % as a bare number.

Here's what some known entries look like.
# compound, assayTarget, measuredQuantity, testResult
records = [
    ("Cc1nnc(-c2ccc(C)c(-c3ccc(C(=O)O)cc3)c2)o1", "ACVR1B", "%Inh", 0),
    ("COc1ccc(CNC(=O)NC2CCN(c3ccnc(Nc4ccc(F)cc4)n3)C2)cc1 (stereo not drawn)", "ACVR1B", "%Inh", 0),
    ("COc1ccc(-n2cnc3c(N)ncnc32)cc1", "ACVR1B", "%Inh", 21),
]

(Q) Provide one value: measured %Inh of O=C(Nc1ccc2c(c1)OCO2)NC1CCN(c2ccnc(NCc3ccc(F)cc3)n2)CC1
(A) 0

(Q) Provide one value: measured %Inh of Cl.NS(=O)(=O)c1cccc(Nc2cc(-c3ccc(F)cc3)n[nH]2)c1
(A) 0

---

# Test system: YSK1
# Construct: gene STK25
# assayConditions: concentration: 1 μM, replicates: in singlicate; n = 1
measuredQuantity: %Inh (%)
Write the value in % as a bare number.

# compound, assayTarget, testResult
rows = [
    ("COc1cc(Nc2nccc(N3CCC(NC(=O)C(C)c4ccc(Cl)cc4)C3)n2)cc(OC)c1OC (centres unmarked) [GSK1379757]", "YSK1", 6),
    ("CCn1c(-c2ccoc2)nc2cnccc21 [SB-733887]", "YSK1", 12),
    ("OCCCNc1nccc(-c2c(-c3cccc(C(F)(F)F)c3)nn3cc(C(F)(F)F)ccc23)n1 [GW630813]", "YSK1", 1),
    ("O=C(NCCNc1ccnc(Nc2ccc(F)cc2)n1)Nc1ccc2c(c1)OCO2 [GSK1379882]", "YSK1", 17),
]

(Q) Provide one value: measured %Inh of Cl.c1ccc(Cn2cnc3cc(Nc4ncnc5ccccc45)ccc32)cc1 [GW272142]
(A) 0
